Data origin, for the record: paper PMC6384738

System: S. aureus ATCC 25923
Test: microbe, parasite or virus in culture
Settings: ATCC 25923, 18 h
Protocol: All compounds synthesised in this study were assessed for their minimum inhibitory concentrations (MIC, mg/L) by broth microdilution assay against five antibiotic-sensitive and resistant ATCC reference strains covering the Gram-negative ESKAPE pathogens (Escherichia coli, Klebsiella pneumoniae, A. baumannii, and P. aeruginosa) (Table 1, Table 2 and Table 3). Staphylococcus aureus was also included as a representative Gram-positive bacterial strain. […]
Where a SMILES comes first, the peptide text is derived from it. Bridges are numbered along the chain shown (N, C = ends). [ ]: non-standard residue; d: D form. The star is where a group is joined. dDab = NCC[C@@H](N)C(=O)O; hSer = N[C@@H](CCO)C(=O)O; Octanoyl = CCCCCCCC(=O)*; Dab = NCC[C@H](N)C(=O)O
PROPERTY LABEL: MIC S. aureus ATCC 25923

INSERT INTO measurements (compound, property_label, reported_measurement) VALUES
  ('CCCCCCCC(=O)N[C@@H](CCO)C(=O)N[C@H](CCN)C(=O)N[C@H]1CCNC(=O)[C@H]([C@@H](C)O)NC(=O)[C@H](CCN)NC(=O)[C@H](CCN)NC(=O)[C@H](CC(C)C)NC(=O)[C@@H](Cc2ccccc2)NC(=O)[C@H](CCN)NC1=O [Compound 31] (Octanoyl-[hSer][dDab][Dab][Dab][dF]L[Dab][Dab]T; lactam 3-C)', 'MIC S. aureus ATCC 25923', '>32 µg/mL'),
  ('CCCCCCCC(=O)N[C@@H](CO)C(=O)N[C@H](CCN)C(=O)N[C@H]1CCNC(=O)[C@H]([C@@H](C)O)NC(=O)[C@H](CCN)NC(=O)[C@H](CCN)NC(=O)[C@H](CC(C)C)NC(=O)[C@@H](Cc2ccccc2)NC(=O)[C@H](CCN)NC1=O [Compound 30] (Octanoyl-S[dDab][Dab][Dab][dF]L[Dab][Dab]T; lactam 3-C)', 'MIC S. aureus ATCC 25923', '>32 µg/mL');

Turning now to a further compound:
Recorded result, CC(C)C[C@@H]1NC(=O)[C@@H](Cc2ccccc2)NC(=O)[C@H](CCN)NC(=O)[C@@H](NC(=O)[C@H](CCN)NC(=O)[C@@H](N)[C@@H](C)O)CCNC(=O)[C@H]([C@@H](C)O)NC(=O)[C@H](CCN)NC(=O)[C@H](CCN)NC1=O [PMBN, polymyxin B nonapeptide, reference compound] (H-T[Dab][Dab][Dab][dF]L[Dab][Dab]T; lactam 3-C (inferred)) , MIC S. aureus ATCC 25923: >32 µg/mL

---

Tested on: K. pneumoniae ATCC 700603
Test: microbe, parasite or virus in culture
Settings: ATCC 700603, 18 h
Where a SMILES comes first, the peptide text is derived from it. Bridges are numbered along the chain shown (N, C = ends). [ ]: non-standard residue; d: D form. The star is where a group is joined. Hexanoyl(6-Ph) = O=C(CCCCCc1ccccc1)*; dDab = NCC[C@@H](N)C(=O)O; Octanoyl = CCCCCCCC(=O)*; Dab = NCC[C@H](N)C(=O)O
PROPERTY LABEL: MIC K. pneumoniae ATCC 700603 (µg/mL)
# value in µg/mL; strip the unit string

INSERT INTO results (molecule, study_system, reported_measurement) VALUES
  ('CCCCCCCC(=O)N[C@@H](CCC(=O)O)C(=O)N[C@H](CCN)C(=O)N[C@H]1CCNC(=O)[C@H]([C@@H](C)O)NC(=O)[C@H](CCN)NC(=O)[C@H](CCN)NC(=O)[C@H](CC(C)C)NC(=O)[C@@H](Cc2ccccc2)NC(=O)[C@H](CCN)NC1=O [Compound 32] (Octanoyl-E[dDab][Dab][Dab][dF]L[Dab][Dab]T; lactam 3-C)', 'K. pneumoniae ATCC 700603', 32);

K. pneumoniae ATCC 700603 assay, molecule CC(C)C[C@@H]1NC(=O)[C@@H](Cc2ccccc2)NC(=O)[C@H](CCN)NC(=O)[C@@H](NC(=O)[C@H](CCN)NC(=O)[C@@H](NC(=O)CCCCCc2ccccc2)[C@@H](C)O)CCNC(=O)[C@H]([C@@H](C)O)NC(=O)[C@H](CCN)NC(=O)[C@H](CCN)NC1=O [Compound 13] ({Hexanoyl(6-Ph)}-T[Dab][Dab][Dab][dF]L[Dab][Dab]T; lactam 3-C) , recorded MIC K. pneumoniae ATCC 700603 = 2

Hey, K. pneumoniae ATCC 700603 data for CCCCCCCC(=O)N[C@@H](CCN)C(=O)N[C@H](C(=O)N[C@H](CCN)C(=O)N[C@H]1CCNC(=O)[C@H]([C@@H](C)O)NC(=O)[C@H](CCN)NC(=O)[C@H](CCN)NC(=O)[C@H](CC(C)C)NC(=O)[C@@H](Cc2ccccc2)NC(=O)[C@H](CCN)NC1=O)[C@@H](C)O [Compound 20] (Octanoyl-[Dab]T[dDab][Dab][Dab][dF]L[Dab][Dab]T; lactam 4-C) : MIC K. pneumoniae ATCC 700603 came out at 1
